Biological target: Tyrosinase (Agaricus bisporus)
Experiment: Inhibition of diphenolase activity of mushroom tyrosinase at 0.042 mM
Assay Readout: inhibition (%)
Just the number in %, nothing appended.

Exercise: Would you mind telling me what inhibition value was observed for COc1cc(/C=C/C(=O)O[C@H]2[C@H](O[C@H]3O[C@H](C)[C@@H](O)[C@H](O)[C@@H]3O)[C@@H](O)[C@H](OCCc3ccc(O)c(OC)c3)O[C@@H]2CO[C@H]2OCC(O)(CO)[C@@H]2O)ccc1O (some centres undefined) ?
Key: 12.7

Exercise: How about "COc1ccc(CCO[C@@H]2O[C@H](CO)[C@@H](OC(=O)/C=C/c3ccc(O)c(OC)c3)[C@H](O[C@@H]3O[C@@H](C)[C@H](O)[C@@H](O)[C@H]3O[C@@H]3OC[C@@H](O)[C@@H](O)[C@@H]3O)[C@H]2O)cc1O" ?
Key: 9.48

Exercise: How about "COc1cc(/C=C/C(=O)O[C@H]2[C@H](O[C@@H]3O[C@@H](C)[C@H](O)[C@@H](O)[C@H]3O[C@@H]3OC[C@@H](O)[C@@H](O)[C@@H]3O)[C@@H](O)[C@H](OCCc3ccc(O)c(OC)c3)O[C@@H]2CO)ccc1O" ?
Key: 17.3

Exercise: How about "C[C@H]1O[C@H](O[C@@H]2[C@@H](O)[C@H](OCCc3ccc(O)c(O)c3)O[C@H](CO[C@H]3O[C@@H](CO)[C@H](O)[C@@H](O)[C@@H]3O)[C@H]2OC(=O)/C=C/c2ccc(O)c(O)c2)[C@@H](O)[C@@H](O)[C@@H]1O" ?
Key: 17.5
